Test system: Trypanosoma cruzi
Test name: Trypanosoma cruzi phosphomannomutase and mannose-1-phosphate guanylyltransferase assay
Type: functional
Parameters: scale not given: direction of the effect not stated beside the values
Condition info: 10 µM

{"Compound": "Cc1noc([C@@]23CCO[C@@H]2CCN(CC2CCOCC2)C3)n1", "Percent Effect": "-6.76%"}
{"Compound": "CCCC(=O)N1CCC(O)(Cn2c(CC)nc3ccccc3c2=O)CC1", "Percent Effect": "3.16%"}
{"Compound": "COc1cccc(N2CCN(Cc3ccc(NC(C)=O)cc3)CC2=O)c1", "Percent Effect": "6.51%"}
{"Compound": "Cc1nc(CNC(C)c2ccc(OCC(=O)NC3CC3)cc2)cs1 (stereo not given)", "Percent Effect": "-2.15%"}
{"Compound": "Cn1cc(CN2CC3(CCN(C(=O)c4ccoc4)C3)C2)cn1", "Percent Effect": "-3.77%"}
{"Compound": "O=C(c1ccc[nH]1)N1C[C@H]2CN(Cc3cccc(F)c3)C(=O)[C@H]2C1", "Percent Effect": "-2.05%"}
{"Compound": "CCn1ccnc1CN1C[C@@H](CN2CCCC2)[C@@H](CO)C1", "Percent Effect": "-4.44%"}
{"Compound": "O=C(CCC1CC1)N1C[C@@H](CN2CCCC2)[C@@H](CO)C1", "Percent Effect": "-2.46%"}
{"Compound": "COc1cccc2c1OCC(CNC(=O)CSc1nc(N)n[nH]1)C2 (stereo not given)", "Percent Effect": "3.62%"}
{"Compound": "CN1CCC(c2cccc(Cc3ccc(F)cc3)n2)CC1", "Percent Effect": "0.395%"}

---

Readings of Percent Effect for the listed molecules
Species: Homo sapiens
Test name: To identify inhibition of the IFN signalling (Jak-Stat) pathway via expression of an eGFP reporter gene under the control of an IFN-stimulated response element (ISRE) containing MxA promoter.
Format: functional
Parameters: scale not given: direction of the effect not stated beside the values
Condition info: 30 µM
Property label: Percent Effect

{"Molecule": "CCC(=O)NCc1cc(Br)c(OC)c(OC)c1", "Property label": "Percent Effect", "Experimental value": "-1.33%"}
{"Molecule": "CC(=O)N1CC(Cc2nccc3ccn(C)c23)C1", "Property label": "Percent Effect", "Experimental value": "1.82%"}
{"Molecule": "O=C(c1ccc(-n2cccn2)nc1)N1CCCN(c2cccnn2)CC1", "Property label": "Percent Effect", "Experimental value": "-7.18%"}
{"Molecule": "CCS(=O)(=O)N1CCC(c2nnc(CN3CCOCC3)n2C)CC1", "Property label": "Percent Effect", "Experimental value": "3.52%"}
{"Molecule": "O=C(NCCn1ccnc1)c1ccn(-c2cccc(F)c2)n1", "Property label": "Percent Effect", "Experimental value": "-0.954%"}
{"Molecule": "Cc1cn2c(n1)CCC(NC(=O)c1ccc(CS(C)(=O)=O)o1)C2 (stereo unspecified)", "Property label": "Percent Effect", "Experimental value": "3.27%"}

---

System name: Tyrosyl-tRNA synthetase, putative (Trypanosoma cruzi (strain CL Brener))
Test name: Trypanosoma cruzi tyrosyl tRNA synthetase (TcYRS) _High Tyrosine SOP; further: in the data most compounds retested in dose-response had high values
Format: functional
Set-up: scale not given: direction of the effect not stated beside the values
Condition info: 30 µM
Attribute: Percent Effect
Property label: Percent Effect (%)

{"Compound": "COc1ccc(OC)c(C2C3=C(COC3=O)Nc3[nH]nc(C)c32)c1 (stereo not given)", "Unit of measurement": "%", "Experimental value": 4.23}
{"Compound": "O=C(c1cnccn1)N1CCN(Cc2csc(-c3ccccc3)n2)CC1", "Unit of measurement": "%", "Experimental value": -4.95}
{"Compound": "Cn1c(Cn2ccnc2)nnc1C1CCN(Cc2cccnc2N)CC1", "Unit of measurement": "%", "Experimental value": 2.1}
{"Compound": "CCNc1cc2c(nn1)CCN(C(=O)c1ccnc(N(C)C)c1)C2", "Unit of measurement": "%", "Experimental value": 4.41}
{"Compound": "CC(OCC(F)(F)F)C(=O)NCc1ccc(-n2cncn2)nc1 (stereo not given)", "Unit of measurement": "%", "Experimental value": 7.62}
{"Compound": "Cc1ccccc1-c1cc(NC(=O)CC(C)C)n(CCO)n1", "Unit of measurement": "%", "Experimental value": 3.19}
{"Compound": "CC(c1ccccc1)n1c(SCC(=O)O)nnc1-c1ccccc1Cl (stereo not given)", "Unit of measurement": "%", "Experimental value": 4.21}
{"Compound": "CN(Cc1ccsc1)C(=O)c1cccc(F)c1", "Unit of measurement": "%", "Experimental value": 3.88}
{"Compound": "CCc1ncc(C(=O)N2CCCCC2Cn2cccn2)s1 (stereo not given)", "Unit of measurement": "%", "Experimental value": 2.97}
{"Compound": "CCOc1ccc(N2CCCN=C2NC(=O)c2cccc(Cl)c2)cc1", "Unit of measurement": "%", "Experimental value": 3.23}

The values you see were collected from ChEMBL document CHEMBL3988442.
